- Assay system: T1, recombinant human DLL4 extracellular domain, C-terminally His-tagged (R&D Systems) (human, UniProt Q9NR61 25-522, biotinylated in the competition assays (sites not given))
- T1 construct: also called rhDLL4; hDLL4; not shown: C-terminal His tag
- T1 sequence (Q9NR61 25-522): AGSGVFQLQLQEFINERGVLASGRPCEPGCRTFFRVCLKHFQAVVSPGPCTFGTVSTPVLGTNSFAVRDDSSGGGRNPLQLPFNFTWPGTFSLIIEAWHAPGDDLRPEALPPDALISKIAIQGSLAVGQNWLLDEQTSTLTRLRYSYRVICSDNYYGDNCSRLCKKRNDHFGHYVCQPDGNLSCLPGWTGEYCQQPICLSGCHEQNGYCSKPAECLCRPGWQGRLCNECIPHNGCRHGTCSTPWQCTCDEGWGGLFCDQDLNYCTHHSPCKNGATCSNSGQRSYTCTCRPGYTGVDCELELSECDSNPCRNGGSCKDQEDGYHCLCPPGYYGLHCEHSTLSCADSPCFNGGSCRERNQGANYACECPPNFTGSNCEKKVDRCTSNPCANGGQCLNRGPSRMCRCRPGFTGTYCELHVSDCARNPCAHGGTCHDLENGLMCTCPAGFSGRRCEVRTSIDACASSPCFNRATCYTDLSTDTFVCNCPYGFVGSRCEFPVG
- Measurement notes: periplasmic extract; hDLL4 ELISA
Kindly state % inhibition for each of the entries shown.
Quick note: give the figure in %, leave out the unit.

INPUT: Data request, read-out % inhibition, for DLLBII6B11 (VHH, also called DLLBII06B11; not shown: C-terminal c-myc and His6 tags) VHH: EVQLVESEGGLVQAGGSLRLSCAASGSTFSSYAMGWYRQAPGKQRELVAVISNGGITNYPNSVKGRFTISRDNAKNTVYLQMNSLKPEDTAVYYCFYSGSYYYPTDVHEYDYWGQGTQVTVSS
OUTPUT: 98

INPUT: Data request, read-out % inhibition, for DLLBII19F04 (VHH, also called DLLBII19F4; not shown: C-terminal c-myc and His6 tags) VHH: EVQLVESGGGLVQAEGSLRLSCAASGSTFSTYAMAWYRQAPGKQRELVAGISFDGSTHYAESVKGRFTISRDDAKNTVSLQMNSLKPEDAAVYYCYSVHPSTGFGSWGQGTQVTVSS
OUTPUT: 98

INPUT: Data request, read-out % inhibition, for DLLBII8A09 (VHH, also called DLLBII08A09; not shown: C-terminal c-myc and His6 tags) VHH: EVQLVESGGGLVQPGGSLRLSCAASGFTLDYYNIGWFRQAPGKEREWVSCINSSDGSTYYADSVKGRFTISRDNAKNTVYLQMNSLKPEDTAVYYCAAPFAYYSNLCGVNGYDYWGQGTQVTVSS
OUTPUT: 96

INPUT: Data request, read-out % inhibition, for DLLBII7B05 (VHH, also called DLLBII7B5; DLLBII07B05; not shown: C-terminal c-myc and His6 tags) VHH: EVQLVESGGGLVQAGGSLRLSCAASGFALDYYAVGWFRQAPGKEREGVSCISSRGGSTFYADSVKGRFTTSRNNAKNTVYLQMNSLKPEDTAVYYCAAHPLQNCCGGSAYASPEAVYEYWGQGTQVTVSS
OUTPUT: 84
